Consider the following compounds; for each one, report its IC50.
# Tested On: Farnesyl-protein transferase (Ftase) (Bos taurus, UniProt P29702+P49355)
# Construct: Farnesyl-protein transferase (Ftase) from bovine brain was chromatographed on DEAE-Sephacel; from tissue; host or cells: bovine brain, partially purified (DEAE-Sephacel, N-octyl agarose, mono Q)
# Protocol Description: RASIT ASSAY I: inhibition of Ras farnesylation in vitro
# Type: biochemical, bovine
# Condition: Ras-CVLS 3.5 μM, 0.25 μM [3H]FPP
One number for each entry, in nM.

Answered examples (3):
CC[C@H](C)C[C@H](C)/C=C/C(=O)O[C@@H]1[C@@H](O)[C@@]2(CCCOC(=O)CCCc3ccccc3)O[C@H](C(=O)O)[C@@](O)(C(=O)O)[C@]1(C(=O)O)O2 [Compound 39e, 39-4-phenylbutyrate ester] ... 120
C=C(CC[C@]12O[C@H](C(=O)O)[C@@](O)(C(=O)O)[C@](C(=O)O)(O1)[C@H](OC(=O)NCCCCCCCCCCCOc1ccccc1)[C@H]2O)[C@@H](OC(C)=O)[C@H](C)Cc1ccccc1 ... 500
CC[C@H](C)C[C@H](C)CCC(=O)O[C@@H]1[C@@H](O)[C@@]2(CCC(C)[C@@H](OC(C)=O)[C@H](C)Cc3ccccc3)O[C@H](C(=O)O)[C@@](O)(C(=O)O)[C@]1(C(=O)O)O2 (stereo partly drawn) [Compound 24b] ... 1300

Your task in this section: give IC50 for each listed record.
1. C=C(CC[C@]12O[C@H](C(=O)O)[C@@](O)(C(=O)O)[C@](C(=O)O)(O1)[C@H](OC(=O)/C=C/[C@@H](C)C[C@@H](C)CC)[C@H]2O)[C@@H](OC(=O)c1ccccc1)[C@H](C)Cc1ccccc1
2. C=C(CC[C@]12O[C@H](C(=O)O)[C@@](O)(C(=O)O)[C@](C(=O)O)(O1)[C@H](OC(=O)OCCCCCCCCCCCOc1ccccc1)[C@H]2O)[C@@H](OC(C)=O)[C@H](C)Cc1ccccc1
3. C=C(CC[C@]12O[C@H](C(=O)O)[C@@](O)(C(=O)O)[C@](C(=O)O)(O1)[C@H](OC(=O)/C=C/[C@@H](C)C[C@@H](C)CC)[C@H]2OC)[C@@H](OC(C)=O)[C@H](C)Cc1ccccc1

Output line:
1: 1700; 2: 500; 3: 4000

###

# Tested on: C. tropicalis MY1012
Give measured MIC for each item. Keep answers brief.
Answers are plain numbers, in µg/mL.

C=C(CC[C@]12O[C@H](C(=O)O)[C@@](O)(C(=O)O)[C@](C(=O)O)(O1)[C@H](OC(=O)/C=C/[C@@H](C)C[C@@H](C)CC)[C@H]2OC)[C@@H](OC(C)=O)[C@H](C)Cc1ccccc1 ... 1

I'm hoping you can list MIC for every compound here, please.
1. C=C(CC[C@]12O[C@H](C(=O)O)[C@@](O)(C(=O)O)[C@](C(=O)O)(O1)[C@H](OC(=O)/C=C/[C@@H](C)C[C@@H](C)CC)[C@H]2O)[C@@H](OC(=O)CCC)[C@H](C)Cc1ccccc1
2. C=C(CC[C@]12O[C@H](C(=O)O)[C@@](O)(C(=O)O)[C@](C(=O)O)(O1)[C@H](OC(=O)Nc1ccc(-c3ccccc3)cc1)[C@H]2O)[C@@H](OC(C)=O)[C@H](C)Cc1ccccc1
3. CC[C@H](C)C[C@H](C)CCC(=O)O[C@@H]1[C@@H](O)[C@@]2(CCC(C)C[C@H](C)Cc3ccccc3)O[C@H](C(=O)O)[C@@](O)(C(=O)O)[C@]1(C(=O)O)O2 (some centres unmarked) [Compound 25b]

Output line:
1: 2; 2: 0.5; 3: 8
